- Tested on: MOLT-4 leukemia
- experimental-details: NCI tumour cell line growth inhibition, 48 h
readout-type: GI50

Assign GI50 to the following record: `COC(=O)C1=C2CO[C@@H]3C[C@H]4C(C)(C)CCC[C@]4(C)C(=CC1)[C@]23C`
5480 nM

Assign GI50 to the following record: `O=C1/C(=C/c2ccc(C(F)(F)F)cc2)COc2ccc(O)cc21`
2330 nM

Assign GI50 to the following record: `O=C1C(Cl)=C(Nc2ccc3c(c2NC2=C(Cl)C(=O)c4ccccc4C2=O)C(=O)c2ccccc2C3=O)C(=O)c2ccccc21`
3250 nM

Assign GI50 to the following record: CCC[CH2][Sn]1([CH2]CCC)[O]CC([CH2][Sn]([c]2ccccc2)([c]2ccccc2)[c]2ccccc2)[O]1 (stereo unspecified)
3220 nM

Assign GI50 to the following record: `Cc1cc(Cl)ccc1Nc1nc(C(F)(F)F)ccc1C(=O)N/N=C/c1ccc(N(C)C)cc1`
2220 nM

Assign GI50 to the following record: `CCCCc1oc2ccccc2c1C(=O)c1cc(I)c(OCCN(CC)CC)c(I)c1`
1920 nM

Assign GI50 to the following record: `CCN1CCN(c2cc(C)nc(NCc3cc(Nc4ccnc5cc(Cl)ccc45)ccc3F)n2)CC1`
2340 nM

Assign GI50 to the following record: `O=C(Nn1c2c(sc1=NC1CC1)C(=O)c1ccccc1C2=O)c1cc2ccc1CCc1ccc(cc1)CC2`
2220 nM

Assign GI50 to the following record: `c1ccc([P+](CCC[P+](c2ccccc2)(c2ccccc2)c2ccccc2)(c2ccccc2)c2ccccc2)cc1`
35900 nM

Assign GI50 to the following record: `CCOC(=O)c1cn2ncnc(Oc3ccc(NC(=O)NCCN(CC)CC)c(Cl)c3)c2c1C`
2360 nM

Assign GI50 to the following record: `CN(C)CCN1C(=O)c2cccc3c(-c4ccc5ncn(C6CCCCC6)c5c4)ccc(c23)C1=O`
446 nM

* * *

- Tested on: ACHN renal
- experimental-details: NCI tumour cell line growth inhibition, 48 h
I'd appreciate it if you could supply TGI values for the items below.
Response body: numeric value in µM, unit text excluded.

Assign TGI to the following record: `O=C1C(Cl)=C(Nc2ccc3c(c2NC2=C(Cl)C(=O)c4ccccc4C2=O)C(=O)c2ccccc2C3=O)C(=O)c2ccccc21`
9.05

Assign TGI to the following record: `NCCCn1c2c(c3ccc([N+](=O)[O-])cc3c1=O)C(=O)c1cc(Cl)ccc1-2`
0.124

Assign TGI to the following record: `COc1ccc(Cn2cc3c(c2-c2ccccc2)CCc2cncnc2-3)cc1`
35.8

Assign TGI to the following record: COc1cc(C2c3cc4c(cc3OC(N3CCOCC3)C2C)OCO4)cc(OC)c1OC (stereo unspecified)
50.3

Assign TGI to the following record: COc1ccc(C2c3c(-c4ccccc4)nn(-c4ccccc4)c3Oc3ncn(N)c(=N)c32)cc1OC (stereo unspecified)
3.69

Assign TGI to the following record: CCCCCCCCCCCCCCCCCCOCC1(COP(=O)([O-])OCC[N+](C)(C)C)CCCO1 (stereo unspecified)
19.4

Assign TGI to the following record: `O=C(Nn1c2c(sc1=NC1CC1)C(=O)c1ccccc1C2=O)c1cc2ccc1CCc1ccc(cc1)CC2`
3.03

Assign TGI to the following record: `C[C@@]1(CBr)C[C@@](C)(/C=C/Cl)[C@@H](Cl)C[C@H]1Cl`
25.7

Assign TGI to the following record: `CC(=O)Oc1cc(OC(C)=O)c2cc3c(cc2c1OC(C)=O)C(=O)C1(CCCC1)C3=O`
31.5

Assign TGI to the following record: `Cc1ccc(C(=O)/C=C/N2CCN(c3cccc(C(F)(F)F)c3)CC2)cc1`
60.5

* * *

- System: UACC-257 melanoma
- experimental-details: NCI tumour cell line growth inhibition, 48 h
Where a SMILES comes first, the peptide text is derived from it. Side-chain parts run from the residue outwards. The star is where a group is joined. Cbz = O=C(OCc1ccccc1)*; Boc = CC(C)(C)OC(=O)*
readout-type: TGI

Assign TGI to the following record: `CCCCCCCCCCCCCCCCCCNC(=S)/N=C/c1c(O)cc(C)oc1=O`
65.3 µM

Assign TGI to the following record: `COc1cc(C(=O)/C=C/c2c(-c3cccs3)nc3ccccn23)cc(OC)c1OC`
4.46 µM

Assign TGI to the following record: `Cc1sc2c(c1C)C(c1ccc(Cl)cc1)=N[C@@H](CC(=O)Nc1ccc(O)cc1)c1nnc(C)n1-2`
26.9 µM

Assign TGI to the following record: `Cc1ccc(C(=O)Nc2ccccc2C(=O)N/N=C(\c2ccccc2)c2ccccn2)cc1`
> 100 µM

Assign TGI to the following record: OC1NC2CC3NC(O)C(O)NC3CC2NC1O (centres undefined)
> 100 µM

Assign TGI to the following record: `Cc1cccc(NC(=O)Cc2nc3ccccc3s2)c1C`
> 100 µM

Assign TGI to the following record: `CN(C)C(=S)/N=c1\ssc(=S)n1Cc1ccccn1`
> 100 µM

Assign TGI to the following record: `CC[C@@]1(O)C(=O)OCc2c1cc1n(c2=O)Cc2c-1nc1ccccc1c2/C=N\NC(=O)C(N)=O`
> 100 µM

Assign TGI to the following record: CC1=NN(c2cccc(Cl)c2)C2(C1)SCC(=O)N2c1nc2ccccc2s1 (centres undefined)
57.7 µM

Assign TGI to the following record: `COc1ccc2c(c1)-c1c(c3ccccc3n1CCN1CCOCC1)CC2`
> 100 µM

Assign TGI to the following record: `NC(N)=N/N=C(/c1ccccc1)c1ccc(O)cc1O`
> 100 µM

Assign TGI to the following record: `CN(c1ccccc1Cl)S(=O)(=O)c1ccccc1`
> 100 µM

Assign TGI to the following record: `CN(/C(=N\O)c1ccccc1)c1ccccc1`
> 100 µM

Assign TGI to the following record: `O=C(OCc1c(-c2ccccc2)nn(-c2ccccc2)c1COC(=O)Oc1ccccc1)Oc1ccccc1`
> 100 µM

Assign TGI to the following record: `CCOC(=O)CCc1c(C)c2c(O)cc(O)cc2oc1=O`
> 100 µM

Assign TGI to the following record: CC(C)CC(NC(=O)OCc1ccccc1)C(=O)NCCCCC(NC(=O)C(CCCCNC(=O)C(CC(C)C)NC(=O)OCc1ccccc1)NC(=O)C(CCCCNC(=O)C(CC(C)C)NC(=O)OCc1ccccc1)NC(=O)C(CCCCNC(=O)C(CC(C)C)NC(=O)OCc1ccccc1)NC(=O)OC(C)(C)C)C(=O)O (centres undefined) (Boc-K([Leu-Cbz])K([Leu-Cbz])K([Leu-Cbz])K([Leu-Cbz])-OH; configuration not given here)
> 25 µM

Assign TGI to the following record: O=C1CSC(c2c(O)ccc3ccccc23)N1n1c(=S)[nH]nc(/C=C/c2c(O)ccc3ccccc23)c1=O (centres undefined)
14.3 µM

Assign TGI to the following record: C=C(C)C(=O)N1c2ccc(OC)cc2CC1C(=O)OCC (centres undefined)
> 100 µM

Assign TGI to the following record: COC(=O)C1CCC(N2C(=O)CCC2C(=O)OC)=N1 (centres undefined)
> 100 µM

* * *

- Tested on: HCT-116 colon
- experimental-details: NCI tumour cell line growth inhibition, 48 h
readout-type: TGI

Tell me its TGI on HCT-116 colon: S=C1NC2=C(COC/C2=C\c2ccccc2Cl)C(c2ccccc2Cl)N1 (stereo unspecified)
80.6 µM

Tell me its TGI on HCT-116 colon: `Oc1cccc2nc3cc(CN4CCOCC4)c(CN4CCOCC4)cc3nc12`
> 100 µM

Tell me its TGI on HCT-116 colon: `CN(C)C(=O)CO/N=C1/C(c2c(O)[nH]c3ccccc23)=Nc2ccccc21`
> 100 µM

Tell me its TGI on HCT-116 colon: `COc1ccc(CCN2CCOCC2)cc1`
> 100 µM

Tell me its TGI on HCT-116 colon: `CN(C)Cc1cc(C(=O)/C=C/c2c(F)cccc2Cl)cc(CN(C)C)c1O`
16.2 µM

Tell me its TGI on HCT-116 colon: `CC(C)(C)[Si](Nc1ccccc1)(c1ccccc1)c1ccccc1`
20.6 µM

Tell me its TGI on HCT-116 colon: `C=CC[C@@]1(C#N)C[C@H](C[C@]2(C#N)C[C@H](CCl)OC(C)(C)O2)OC(C)(C)O1`
> 100 µM

Tell me its TGI on HCT-116 colon: `COC(=O)NN=C1C(C)(C)C(=NNC(=O)OC)C1(C)C`
> 62.5 µM

Tell me its TGI on HCT-116 colon: `COc1ccc(NCc2c(O)ccc3ccccc23)cc1`
> 100 µM

Tell me its TGI on HCT-116 colon: `Cn1c(=O)c2[nH]cnc2n(CC(=O)O)c1=O`
> 100 µM

Tell me its TGI on HCT-116 colon: `CCN(CC)CCNc1ccc2nnn3c4ccc(OC(C)=O)cc4c(=O)c1c23`
> 37.5 µM

From: PubChem BioAssay (NCI)
